- ASSAY_TARGET: AMP-activated protein kinase, AMPK (Homo sapiens) (UniProt P54646+O43741+P54619+Q9UGJ0+Q9Y478+Q13131+Q9UGI9)
- EXPERIMENT: AMP-dependent Kinase enzyme assay. An in vitro enzyme assay that detects ADP turnover that is directly proportional to AMPK activity. This uses naive AMPK that is activated during the assay with MK-8722
- Type: functional
- Set-up: scale not given: direction of the effect not stated beside the values
- RUN_CONDITIONS: 30 µM
Provide the recorded Percent Effect for the entries that follow.
One number for each entry, in %.

The compound listed as Cc1ccc(C)c(CNC(=O)NC(C)(C(=O)O)c2ccco2)c1 (centres undefined) has a reported Percent Effect of -0.592

Record "Cc1ccccc1CN1CCN(Cc2nccn2C)CC1" . Reported Percent Effect: -4.75

The recorded Percent Effect for entry CC(CN1CCOCC1)NCC1CCN(c2cnn(C)c(=O)c2)CC1 (centres undefined) equals -4.64

CCN1CCC(NC(=O)CN2CCCC2Cn2cncn2)CC1 (centres undefined) yielded Percent Effect of -1.15

Lab book: Percent Effect of "c1cnc2c(c1)cc(C1CCOCC1)n2CCN1CCOCC1" noted as 13.1

response.value for CC(NC1(CNC(=O)CC(C)(C)C)CCOCC1)c1ccccc1 (centres undefined) (field: Percent Effect) = 1.15

Please go through the list and note Percent Effect for each compound.
1. CC(C(=O)N1CCc2ccccc2C1)n1cc(Br)cn1 (centres undefined)
2. CCS(=O)(=O)CCn1ccc(NC(=O)CCc2cccc(C)c2)n1
3. Cc1cccc(CN2C[C@@H]3CN(C(=O)NC(C)C)C[C@@H]3C2=O)c1
4. N#Cc1ccccc1N1CCCN(C(=O)CCc2nccs2)CC1
5. COc1ccc(C2=CCN(C(=O)CN(C)Cc3ccoc3)CC2)cc1
6. Cc1nn(C)c2c(NCCCn3cccn3)ncnc12
7. CCCc1n[nH]c(C2CN(C(=O)CCCn3cccn3)CCO2)n1 (centres undefined)

# output
-6.91
2.06
3
-0.172
-2.65
2.34
-0.0148
